Recorded values, source patent US9981925B2.

- EXPERIMENTAL SYSTEM: UniProt P31749
- Sequence (P31749 whole entry): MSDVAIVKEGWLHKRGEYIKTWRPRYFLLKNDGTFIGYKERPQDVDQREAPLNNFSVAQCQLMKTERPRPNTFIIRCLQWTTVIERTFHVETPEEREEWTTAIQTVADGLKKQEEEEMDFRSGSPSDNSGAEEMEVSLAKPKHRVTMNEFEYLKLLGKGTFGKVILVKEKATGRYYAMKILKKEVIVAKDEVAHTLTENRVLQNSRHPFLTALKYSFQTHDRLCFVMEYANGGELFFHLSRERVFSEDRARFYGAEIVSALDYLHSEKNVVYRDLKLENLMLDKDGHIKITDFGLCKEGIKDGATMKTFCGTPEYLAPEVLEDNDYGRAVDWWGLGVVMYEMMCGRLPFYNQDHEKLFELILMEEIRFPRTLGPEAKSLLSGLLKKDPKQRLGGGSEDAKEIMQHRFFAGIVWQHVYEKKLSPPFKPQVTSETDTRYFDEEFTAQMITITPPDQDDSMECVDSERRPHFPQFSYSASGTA
- ASSAY DETAILS: AKT/PKB kinase assay
- Format: biochemical
- MEASUREMENT CONTEXT: 160 μM ATP, 90 min at 25° C., Caliper mobility shift
IC50 reference

Study these solved cases before continuing.
> print(dat)
                                   compound  experimental.result
1  CNC[C@@H](Nc1ncnc2c(C(N)=O)ccnc12)c1ccc(C(F)(F)F)cc1      0.025 to 0.1 µM
2  CNC[C@@H](Nc1ncnc2c(C(N)=O)ccnc12)c1ccc(C(C)C)cc1      0.101 to 0.5 µM
3  NC(=O)c1ccnc2c(N[C@H](CN3CCC3)c3ccc(C(F)(F)F)c(C(F)(F)F)c3)ncnc12           < 0.025 µM

Now turn to the next molecule.
Look up IC50 for this molecule: COc1cc([C@@H](CN2CCC2)Nc2nnnc3c(C(N)=O)cccc23)ccc1Cl
0.101 to 0.5 µM
